Molecular target: Phosphatidylinositol 4,5-bisphosphate 3-kinase catalytic subunit delta isoform (Homo sapiens, UniProt O00329)
Sequence (O00329 whole entry): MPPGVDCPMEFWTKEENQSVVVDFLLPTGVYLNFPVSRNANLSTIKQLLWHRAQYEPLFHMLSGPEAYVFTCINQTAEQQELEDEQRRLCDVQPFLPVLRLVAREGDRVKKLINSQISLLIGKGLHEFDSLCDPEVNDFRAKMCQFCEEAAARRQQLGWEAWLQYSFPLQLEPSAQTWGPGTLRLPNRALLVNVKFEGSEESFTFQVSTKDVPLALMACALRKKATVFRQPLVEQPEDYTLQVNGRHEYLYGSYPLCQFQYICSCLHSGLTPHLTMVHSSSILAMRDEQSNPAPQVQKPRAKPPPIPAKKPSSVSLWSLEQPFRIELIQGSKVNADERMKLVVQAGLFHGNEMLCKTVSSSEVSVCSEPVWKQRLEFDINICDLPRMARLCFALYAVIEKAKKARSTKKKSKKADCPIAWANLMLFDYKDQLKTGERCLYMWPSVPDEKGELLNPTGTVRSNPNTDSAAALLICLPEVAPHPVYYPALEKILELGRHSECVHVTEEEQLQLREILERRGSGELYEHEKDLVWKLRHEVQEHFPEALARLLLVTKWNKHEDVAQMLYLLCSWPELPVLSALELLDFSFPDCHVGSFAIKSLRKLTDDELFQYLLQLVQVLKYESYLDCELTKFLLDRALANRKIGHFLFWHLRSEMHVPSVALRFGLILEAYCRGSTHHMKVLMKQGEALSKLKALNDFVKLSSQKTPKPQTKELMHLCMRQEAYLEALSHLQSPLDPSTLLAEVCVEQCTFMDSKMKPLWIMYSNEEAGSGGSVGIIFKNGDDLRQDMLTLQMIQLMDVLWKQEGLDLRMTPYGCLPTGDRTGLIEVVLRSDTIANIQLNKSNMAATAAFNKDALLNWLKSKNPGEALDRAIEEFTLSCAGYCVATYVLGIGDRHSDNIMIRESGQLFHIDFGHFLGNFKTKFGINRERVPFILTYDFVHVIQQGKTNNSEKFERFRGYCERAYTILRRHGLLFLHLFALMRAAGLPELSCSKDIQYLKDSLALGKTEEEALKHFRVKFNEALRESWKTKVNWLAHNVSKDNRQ
Assay: Inhibition of PI3Kdelta (unknown origin) assessed as reduction of ATP level after 40 mins by luciferase based luminescence assay
observation type: pIC50
Convention used: pIC50 is expressed as -log10 of the molar concentration.

CCN(CC)CCNC(=O)Nc1nc2ccc(-c3cnc(OC)c(NS(=O)(=O)c4ccc(F)cc4)c3)cn2n1
7.92

We next turn to a different compound, shown below.
Request: Quick one: pIC50 of COc1ncc(-c2ccc3nc(NC(=O)NC4CC4)nn3c2)cc1NS(=O)(=O)c1ccc(F)cc1 ?
Result: 7.80
